pIC50: −log10 of the molar value.
Here's what we have: pIC50 numbers for UniProtKB O15379.
Sequence (O15379 whole entry): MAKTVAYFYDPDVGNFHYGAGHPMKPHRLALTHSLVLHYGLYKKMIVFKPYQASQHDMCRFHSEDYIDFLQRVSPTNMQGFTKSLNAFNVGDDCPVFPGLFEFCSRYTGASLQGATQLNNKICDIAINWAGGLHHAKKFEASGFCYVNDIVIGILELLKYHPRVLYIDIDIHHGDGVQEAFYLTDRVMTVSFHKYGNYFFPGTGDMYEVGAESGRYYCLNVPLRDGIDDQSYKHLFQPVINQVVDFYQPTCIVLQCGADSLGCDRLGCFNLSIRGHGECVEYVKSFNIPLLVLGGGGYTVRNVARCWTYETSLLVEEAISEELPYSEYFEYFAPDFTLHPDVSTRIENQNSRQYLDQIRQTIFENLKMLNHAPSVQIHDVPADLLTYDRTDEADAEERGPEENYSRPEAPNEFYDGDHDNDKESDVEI

COMPOUND_STRUCTURE_STRING: O=C(CCCCCC(c1c[nH]c2ccc([N+](=O)[O-])cc12)c1c[nH]c2ccc([N+](=O)[O-])cc12)NO
pIC50: 7.74
//
COMPOUND_STRUCTURE_STRING: Nc1ccccc1NC(=O)CCCCCC(c1c[nH]c2ccccc12)c1c[nH]c2ccccc12
pIC50: 6.59
//
COMPOUND_STRUCTURE_STRING: O=C(/C=C/c1ccc(C(c2c[nH]c3ccccc23)c2c[nH]c3ccccc23)cc1)NO
pIC50: 6.36

====

Here's what we have: IC50 numbers for Histone deacetylase 4 (Homo sapiens, UniProt P56524).

COMPOUND_STRUCTURE_STRING: O=C(CCCCCC(c1c[nH]c2ccc([N+](=O)[O-])cc12)c1c[nH]c2ccc([N+](=O)[O-])cc12)NO
UNITS_LABEL: nM
IC50: 220
--
COMPOUND_STRUCTURE_STRING: O=C(CCCCCC(c1c[nH]c2ccccc12)c1c[nH]c2ccccc12)NO
UNITS_LABEL: nM
IC50: 1300

====

Reported pIC50 values follow for various compounds
Sequence of the target: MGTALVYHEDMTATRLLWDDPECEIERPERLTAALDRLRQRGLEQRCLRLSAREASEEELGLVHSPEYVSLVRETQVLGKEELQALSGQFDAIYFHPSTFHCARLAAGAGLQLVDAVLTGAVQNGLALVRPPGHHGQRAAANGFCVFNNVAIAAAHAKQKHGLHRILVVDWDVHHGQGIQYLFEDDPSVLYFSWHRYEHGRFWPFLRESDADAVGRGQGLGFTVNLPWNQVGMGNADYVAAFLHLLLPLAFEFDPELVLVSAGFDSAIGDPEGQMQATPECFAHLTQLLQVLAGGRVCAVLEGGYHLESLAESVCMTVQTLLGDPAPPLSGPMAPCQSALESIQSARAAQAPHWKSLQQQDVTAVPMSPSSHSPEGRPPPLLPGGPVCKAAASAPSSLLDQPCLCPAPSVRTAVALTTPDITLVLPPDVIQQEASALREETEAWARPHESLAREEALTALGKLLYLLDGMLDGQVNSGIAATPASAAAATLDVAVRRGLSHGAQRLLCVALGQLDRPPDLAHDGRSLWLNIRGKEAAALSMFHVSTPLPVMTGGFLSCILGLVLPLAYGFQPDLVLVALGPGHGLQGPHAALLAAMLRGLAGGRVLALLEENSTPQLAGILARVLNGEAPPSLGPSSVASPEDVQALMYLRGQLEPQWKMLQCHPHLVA
pIC50: −log10 of the molar value.
QUANTITY_MEASURED: pIC50

COMPOUND_STRUCTURE_STRING: Nc1ccccc1NC(=O)CCCCCC(c1c[nH]c2ccccc12)c1c[nH]c2ccccc12
QUANTITY_MEASURED: pIC50
RECORDED_RESULT: 4.14

COMPOUND_STRUCTURE_STRING: O=C(CCCCCC(c1c[nH]c2ccc([N+](=O)[O-])cc12)c1c[nH]c2ccc([N+](=O)[O-])cc12)NO
QUANTITY_MEASURED: pIC50
RECORDED_RESULT: 6.60

COMPOUND_STRUCTURE_STRING: O=C(/C=C/c1ccc(C(c2c[nH]c3ccccc23)c2c[nH]c3ccccc23)cc1)NO
QUANTITY_MEASURED: pIC50
RECORDED_RESULT: 5.33
